Data credit: the Human Domainome abundance scans (Beltran et al. 2025)

B1: Far upstream element-binding protein 1, residues 98 to 169; numbered along this chain, Q96AE4 (parent)
chain: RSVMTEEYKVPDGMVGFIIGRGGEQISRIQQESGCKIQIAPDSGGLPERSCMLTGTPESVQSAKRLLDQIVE

Variants of: B1
Test: abundance fitness (aPCA) (normalised: wild type 0, dead -1); higher = more abundant; growth selection in yeast, the domain comes from the species named
Settings: Homo sapiens
Give measured abundance fitness for each item. Keep answers brief.
Answer as a number with no unit attached.

Form field abundance fitness, entry "Q25A" : -0.088

In plain terms, "R65G" has a documented abundance fitness of -0.027

Reported abundance fitness ( "P47E" ) = -0.025

In plain terms, "P11M" has a documented abundance fitness of -0.136

Record "G45W" , field abundance fitness: -0.166

Measured abundance fitness, "V60S" : -0.57

Lab note: "S43T" gave abundance fitness of -0.037

Reported abundance fitness ( "I26L" ) = 0.023

// field: abundance fitness; key: "M4C" ; value = 0.01

The variant listed as "R1P" has a reported abundance fitness of -0.286

Looking up "Q25Y" , I see its abundance fitness listed as -0.132
